The reported numbers originate from patent US7118895B2.

system: β-Glucosidase derived from A. niger; assay: Reactivity toward various isoflavone glycosides (HPLC); format: biochemical, Aspergillus niger; parameters: unit not given here; settings: Reaction time 1 h; 55 °C, pH 4.0
recorded-endpoint: aglycon

compound_structure_string=CC(=O)OC[C@H]1O[C@@H](Oc2cc(O)c3c(=O)c(-c4ccc(O)cc4)coc3c2)[C@H](O)[C@@H](O)[C@@H]1O system="β-Glucosidase derived from A. niger" value_reported=1.4
compound_structure_string=COc1cc2c(=O)c(-c3ccc(O)cc3)coc2cc1O[C@@H]1O[C@H](COC(C)=O)[C@@H](O)[C@H](O)[C@H]1O system="β-Glucosidase derived from A. niger" value_reported=0
compound_structure_string=CC(=O)OC[C@H]1O[C@@H](Oc2ccc3c(=O)c(-c4ccc(O)cc4)coc3c2)[C@H](O)[C@@H](O)[C@@H]1O system="β-Glucosidase derived from A. niger" value_reported=4.4
